Biological target: PCSK9 (Homo sapiens, UniProt Q8NBP7, G670E/V474I)
Sequence (Q8NBP7 with tags, fused parts or gaps V474I/G670E): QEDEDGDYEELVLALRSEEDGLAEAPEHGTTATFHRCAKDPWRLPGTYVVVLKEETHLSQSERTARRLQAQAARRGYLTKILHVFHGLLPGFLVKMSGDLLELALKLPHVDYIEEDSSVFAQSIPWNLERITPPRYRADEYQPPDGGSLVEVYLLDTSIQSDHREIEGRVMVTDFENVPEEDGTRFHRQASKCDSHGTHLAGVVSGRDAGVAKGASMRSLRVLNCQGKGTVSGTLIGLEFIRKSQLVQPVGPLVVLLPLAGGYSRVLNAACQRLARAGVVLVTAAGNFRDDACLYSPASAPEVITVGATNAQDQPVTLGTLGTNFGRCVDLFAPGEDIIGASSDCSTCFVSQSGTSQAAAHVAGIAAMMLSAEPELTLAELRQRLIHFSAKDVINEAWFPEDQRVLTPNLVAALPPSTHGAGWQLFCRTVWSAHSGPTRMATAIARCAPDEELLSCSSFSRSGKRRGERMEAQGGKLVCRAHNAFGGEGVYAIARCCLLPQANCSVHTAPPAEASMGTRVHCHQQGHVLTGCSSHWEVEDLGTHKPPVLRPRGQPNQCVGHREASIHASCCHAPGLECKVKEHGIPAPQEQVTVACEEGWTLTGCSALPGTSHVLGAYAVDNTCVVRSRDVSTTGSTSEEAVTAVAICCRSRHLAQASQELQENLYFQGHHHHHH
Test: biochemical
pIC50: −log10 of the molar value.
Would you please tag the item 1 (yes) when its pIC50 is 8 or above, and 0 (no) when it is below?

Take a look at these entries with their results.
>>> df
                             compoundstring  classification
0  Cn1c(=O)n(-c2ccc(N[C@H]3CC[C@H](Nc4nc5cccnc5o4)C3)nc2)c2ncccc21         1 (yes)
1  COc1cccc(F)c1-c1ccc(N[C@H]2CC[C@H](Nc3nc4cccnc4[nH]3)C2)nc1          0 (no)
2  O=c1ccc(Cl)cn1-c1ccc(N[C@H]2CC[C@H](Nc3nc4cccnc4[nH]3)C2)nc1         1 (yes)
3  N#Cc1cccn(-c2ccc(N[C@H]3CC[C@H](Nc4nc5cccnc5o4)C3)nc2)c1=O         1 (yes)

Entry `O=c1ccccn1-c1ccc(N[C@H]2CC[C@H](Nc3nc4ccccc4o3)C2)nc1` : is its pIC50 no less than 8? 0 (no)

Entry `COc1cccn(-c2ccc(N[C@H]3CC[C@H](Nc4nc5cccnc5o4)C3)nc2)c1=O` : is its pIC50 no less than 8? 1 (yes)

Entry `O=c1c(OC(F)(F)F)cccn1-c1ccc(N[C@H]2CC[C@H](Nc3nc4cccnc4[nH]3)C2)nc1` : is its pIC50 no less than 8? 1 (yes)

Entry `O=c1c(OC(F)F)cccn1-c1ccc(N[C@H]2CC[C@H](Nc3nc4cccnc4o3)C2)nc1` : is its pIC50 no less than 8? 1 (yes)

Entry `O=c1ccc(OC(F)F)cn1-c1ccc(N[C@H]2CC[C@H](Nc3nc4cccnc4o3)C2)nc1` : is its pIC50 no less than 8? 0 (no)

Entry `CN1CC(=O)N(c2ccc(N[C@H]3CC[C@H](Nc4nc5cccnc5[nH]4)C3)nc2)C1=O` : is its pIC50 no less than 8? 1 (yes)

Entry `COc1cccn(-c2ccc(N[C@H]3CC[C@H](Nc4nc5cccnc5[nH]4)C3)nc2)c1=O` : is its pIC50 no less than 8? 1 (yes)

Entry `Cc1cccn(-c2ccc(N[C@H]3CC[C@H](Nc4nc5cccnc5[nH]4)C3)nc2)c1=O` : is its pIC50 no less than 8? 1 (yes)

Entry `CN1C(=O)CN(c2ccc(N[C@H]3CC[C@H](Nc4nc5cccnc5[nH]4)C3)nc2)C1=O` : is its pIC50 no less than 8? 1 (yes)

Entry `O=c1ccccn1-c1ccc(N[C@H]2CC[C@H](Nc3nc4cc(C5CC5)cnc4[nH]3)C2)nc1` : is its pIC50 no less than 8? 1 (yes)

Entry `COc1ccnc2[nH]c(N[C@H]3CC[C@H](Nc4ccc(-n5ccccc5=O)cn4)C3)nc12` : is its pIC50 no less than 8? 0 (no)

Entry `O=c1ccc2cccnc2n1-c1ccc(N[C@H]2CC[C@H](Nc3nc4cccnc4[nH]3)C2)nc1` : is its pIC50 no less than 8? 1 (yes)

----------
Target: PCSK9 (Homo sapiens, UniProt Q8NBP7)
Sequence (Q8NBP7 31-692): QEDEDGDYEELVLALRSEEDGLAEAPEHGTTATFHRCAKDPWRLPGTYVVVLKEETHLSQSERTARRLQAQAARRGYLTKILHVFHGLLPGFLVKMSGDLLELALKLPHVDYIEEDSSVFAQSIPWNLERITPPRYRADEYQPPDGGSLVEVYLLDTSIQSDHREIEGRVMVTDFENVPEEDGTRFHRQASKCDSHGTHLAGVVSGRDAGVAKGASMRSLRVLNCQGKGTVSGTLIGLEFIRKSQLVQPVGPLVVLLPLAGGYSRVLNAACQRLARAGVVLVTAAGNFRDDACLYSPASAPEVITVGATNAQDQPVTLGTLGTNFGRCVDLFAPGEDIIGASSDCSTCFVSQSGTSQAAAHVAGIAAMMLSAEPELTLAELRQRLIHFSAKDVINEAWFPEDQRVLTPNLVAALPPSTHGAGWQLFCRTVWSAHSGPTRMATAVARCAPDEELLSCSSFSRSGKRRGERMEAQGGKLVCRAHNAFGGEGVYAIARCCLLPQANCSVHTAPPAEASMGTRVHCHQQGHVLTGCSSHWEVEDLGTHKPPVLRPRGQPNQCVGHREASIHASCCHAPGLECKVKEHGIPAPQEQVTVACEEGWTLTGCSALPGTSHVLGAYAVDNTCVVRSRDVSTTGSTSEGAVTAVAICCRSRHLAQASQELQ
# label = yes if Kd < 3 nM else no

Take a look at these entries with their results.
>>> print(df.to_string())
                             compoundstring  classification
0  O=c1ccccn1-c1ccc(N[C@H]2CC[C@H](Nc3nc4ncccc4s3)C2)nc1              no
1  O=c1ccccn1-c1ccc(N[C@H]2CC[C@H](Nc3nc4ccccc4[nH]3)C2)nc1              no
2  O=c1[nH]c2ccsc2c(=O)n1-c1ccc(N[C@H]2CC[C@H](Nc3nc4cccnc4s3)C2)nc1             yes
3  O=c1ccccn1-c1ccc(N[C@H]2CC[C@H](Nc3nc4cc(CO)cnc4[nH]3)C2)nc1              no
4  O=c1ccc2cccnc2n1-c1ccc(N[C@H]2CC[C@H](Nc3nc4cccnc4[nH]3)C2)nc1             yes

Below 3 nM on Kd? Entry `Cn1ccc(=O)n(-c2ccc(N[C@H]3CC[C@H](Nc4nc5cccnc5s4)C3)nc2)c1=O` yes

Below 3 nM on Kd? Entry `COc1cccn(-c2ccc(N[C@H]3CC[C@H](Nc4nc5cccnc5s4)C3)nc2)c1=O` yes

Values from patent US20240239767A1
